SYSTEM UNDER TEST: Shiga toxin 2 (Escherichia coli O157:H7) (UniProt P09385+P09386)
TEST: E. coli 0.157:H7 Shiga Toxin SOP - stx2 screening assay
Assay type: functional
Set-up: scale not given: direction of the effect not stated beside the values
CONDITION DETAILS: 30 µM
Exercise: for every item that follows, state its recorded Percent Effect.
Numbers only, in %.

Example results:
{"columns": ["COMPOUND", "MEASUREMENT UNIT", "RECORDED MEASUREMENT"],
 "data": [
  ["Cc1n[nH]c2c1C(c1ccsc1)SCC(=O)N2 (centres undefined)", "%", 1.07],
  ["CCC(=O)Nc1ccc(C(C)NC(=O)COCCOC)cc1 (centres undefined)", "%", -16.3],
  ["CCN(Cc1cccc(Cl)c1)Cc1nc2c(cnn2C)c(=O)[nH]1", "%", 31.3]
]}

For every listed record, write down its Percent Effect.
1. O=C(Nc1cccc(Cl)c1)c1nn(C2CCS(=O)(=O)C2)c2c1CCCC2 (centres undefined)
2. CCOc1ncccc1C(=O)N1CCCC1c1c(C)nn(C)c1OC (centres undefined)
3. NCc1cnn(-c2ccccc2C(=O)NCc2ccncc2)c1
4. Cn1ccnc1CN(CCCO)C1CCCc2ccccc21 (centres undefined)
5. CN(Cc1ccc(F)cc1)C(=O)Cn1nc(-c2ccc(F)cc2)oc1=O
6. COc1cc(CCC(=O)NCC2CCCN2C)ccc1OCC(F)(F)F (centres undefined)
7. Cc1noc(CN2CCN(CC(C)O)CC2)n1 (centres undefined)

[out]
[5.07, -8.49, 13.2, 8.83, -25.7, 22.2, -6.53]

----------
SYSTEM UNDER TEST: Aspartate--tRNA(Asp/Asn) ligase (Mycobacterium tuberculosis (strain ATCC 25618 / H37Rv)) (UniProt P9WFW3); note: in the data most compounds retested in dose-response had high values
Sequence (whole entry): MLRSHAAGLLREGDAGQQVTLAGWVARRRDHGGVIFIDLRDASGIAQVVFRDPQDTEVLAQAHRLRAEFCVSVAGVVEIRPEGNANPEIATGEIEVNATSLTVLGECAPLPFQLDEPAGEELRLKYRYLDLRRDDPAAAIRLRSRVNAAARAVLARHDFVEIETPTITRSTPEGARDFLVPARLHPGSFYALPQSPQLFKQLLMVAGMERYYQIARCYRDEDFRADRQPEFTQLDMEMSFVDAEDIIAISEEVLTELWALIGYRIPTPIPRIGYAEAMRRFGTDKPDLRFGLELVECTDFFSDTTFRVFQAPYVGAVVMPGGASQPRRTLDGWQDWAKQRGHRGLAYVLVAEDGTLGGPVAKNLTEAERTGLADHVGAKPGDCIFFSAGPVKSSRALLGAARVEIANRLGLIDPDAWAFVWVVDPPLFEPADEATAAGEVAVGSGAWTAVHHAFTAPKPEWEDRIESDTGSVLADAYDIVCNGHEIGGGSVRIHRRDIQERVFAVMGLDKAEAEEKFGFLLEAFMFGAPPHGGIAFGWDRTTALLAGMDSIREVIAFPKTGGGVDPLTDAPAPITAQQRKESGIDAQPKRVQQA
TEST: Assay for Asp RNA synthetase-1 from Mycobacterium tuberculosis
Format: functional
Parameters: scale not given: direction of the effect not stated beside the values
CONDITION DETAILS: 30 µM
REPORTED ENDPOINT: Percent Effect (%)
Numbers only, in %.

Example results:
{"columns": ["COMPOUND", "Percent Effect [%]"],
 "data": [
  ["CNC(=O)c1cccc(C2CNCCN2C(C)=O)c1 (stereo not drawn)", -2.04],
  ["Cc1ccc(C2CCCCCN2Cc2cn(C)nc2C)cc1 (stereo not drawn)", -5.2],
  ["Cc1cc(NC(=O)N2CCN(c3nc(C)c(C)s3)CC2)no1", 0.38],
  ["Cc1nn(C)c(N(C)C)c1CNCC(O)COc1ccccc1 (stereo not drawn)", -5.92],
  ["CC(NC(=O)NCC1(c2ccc(F)cc2)CCC1)c1nncn1C (stereo not drawn)", 2.25]
]}

For every listed record, write down its Percent Effect.
1. CCc1nc(C2CCCN2C(=O)c2ccc3c(c2)nc(C)n3C)no1 (stereo not drawn)
2. CCS(=O)(=O)N1C[C@@H](OCc2cccnc2)[C@H]2OCCC[C@H]21

[out]
[-0.367, 3.4]

For every listed record, write down its Percent Effect.
1. Cc1cccc(C(=O)N2CCCCC2c2ccc(CN(C)C)cc2)n1 (stereo not drawn)
2. CC(C)(C)c1ccc(C2(C(=O)NCCS(N)(=O)=O)CC2)cc1
3. CC(=O)Nc1nc(CN2CCCC2Cn2cncn2)cs1 (stereo not drawn)
4. CCOC(=O)C1CCN(Cc2csc(C(C)(C)C)n2)CC1
5. CNC(=O)C1(CCCc2ccncc2)CCCN1 (stereo not drawn)
6. O=C(O)C1(Cc2cc(-c3ccc(F)cc3F)no2)CCOCC1

[out]
[-2.28, 13.3, -6.16, -9.34, 4.78, 0.819]
